System: EKVX NSCLC
Assay: NCI tumour cell line growth inhibition, 48 h
Metric Name: TGI (µM)
The reply should contain only the number, in µM.

Some molecules with known TGI results, for comparison:
- Molecule: "COc1oc(C2C/C(=C/C(C)=C/C(C)=C/C(C)=C/c3ccc([N+](=O)[O-])cc3)CO2)c(C)c(=O)c1C (centres undefined)"
  TGI [µM]: 82.6
- Molecule: "NP1(Oc2ccc(F)cc2)=NP(N)(Oc2ccc(F)cc2)=NP(Oc2ccc(F)cc2)(Oc2ccc(F)cc2)=N1 (centres undefined)"
  TGI [µM]: 19
- Molecule: "CC[C@@]1(O)C(=O)OCc2c1cc1n(c2=O)Cc2c-1nc1ccc(N)cc1c2CC[Si](C)(C)C"
  TGI [µM]: 3.23

Next molecule, TGI to be filled in.
Query: Quickly give me recorded TGI for C=C(CN1CCN(c2cc(C(F)(F)F)cc(C(F)(F)F)c2)CC1)c1ccc(C(=O)Nc2ccccc2N)cc1
Reply: 58.6

====

Test system: RPMI-8226 leukemia
Experiment: NCI tumour cell line growth inhibition, 48 h; in the data active = GI50 below about 0.43 µM; inactive = the rest
Write down one outcome, taken from TRUE for active, FALSE for inactive

Would you please look over these solved cases?
- Compound: "Nc1nc(SCC#CCCl)c2[nH]cnc2n1"
  Assigned Class: "FALSE"
- Compound: "N#Cc1cnn(C(=O)c2nn(-c3ccc(Cl)cc3)cc2O)c1N"
  Assigned Class: "TRUE"
- Compound: "COC(=O)[C@]12CC[C@@H](C)[C@H](C)[C@@H]1C1=CC[C@@H]3[C@@]4(C)C[C@@H](OC(C)=O)[C@H](OC(C)=O)[C@@](C)(COC(C)=O)[C@@H]4[C@H](O)C[C@@]3(C)[C@]1(C)CC2"
  Assigned Class: "FALSE"

Query: How did this test come out for CC[C@H](C)[C@H](NC(=O)CN(C)C)C(=O)N(C)[C@H](C[C@@H](OC(C)=O)c1nc(C(=O)NC23C4C5C2C2C3C4C52C(=O)OC)cs1)C(C)C (some centres undefined) ?
Reply: TRUE

Query: Recorded test call requested for OC[C@H]1C[C@](O)(c2ccccc2Cl)[C@@H](c2ccccc2Cl)O1
Reply: FALSE

Query: Which outcome was entered for the compound CNC(=O)c1sc(-n2cnc3cc(OC)c(OC)cc32)cc1OCc1ccccc1C(F)(F)F in this test?
Reply: FALSE

Query: Tell me the recorded outcome of this test for COc1cc(/C=N\Nc2ccccc2)ccc1OC(=O)c1ccccc1 .
Reply: FALSE

Query: Assay outcome for CSc1ccc(-c2cn3ccsc3n2)cc1 : what was it?
Reply: FALSE

Query: Recorded call for Cc1c2ccncc2c(C)c2c1[nH]c1ccc(O)cc12 ?
Reply: FALSE

====

Test system: COLO 205 colon
Test: NCI tumour cell line growth inhibition, 48 h
Entries and their TGI values follow.

Answered examples (4):
- Molecule: "CCOC(=O)C(Oc1ccc(OC)c2c1C(=O)CCC2)c1ccccc1 (stereo not given)"
  Experimental System: "COLO 205 colon"
  TGI: "> 100 µM"
- Molecule: "COc1ccc(N2C(=O)[C@@H]3[C@@H]4CC(C)CC[C@@H]4c4c([nH]c5ccccc45)[C@@H]3C2=O)cc1 (stereo not given in full)"
  Experimental System: "COLO 205 colon"
  TGI: "> 55.1 µM"
- Molecule: "Cc1csc(NCc2ccc(Cl)cc2)n1"
  Experimental System: "COLO 205 colon"
  TGI: "63.1 µM"
- Molecule: "CCOc1c2c(cc3c1C(=O)c1c(OC)cccc1C3=O)C=C(OC)CC2"
  Experimental System: "COLO 205 colon"
  TGI: "> 25 µM"

# ---- query molecule ----
Query: Please indicate TGI recorded for CCN(CC)C(=O)Cc1[nH][nH]c(=O)c1C(=O)N(CC)CC
Reply: > 100 µM

====

System: HL-60(TB) leukemia
Assay: NCI tumour cell line growth inhibition, 48 h; in the data active means GI50 below about 0.43 µM; inactive means the rest
// classify into active, inactive

Query: Please indicate how the test categorized COc1cc(OC)c(/C=C/S(=O)(=O)Cc2ccc(OC)c(N)n2)c(OC)c1 .
Reply: active

Query: Look up the recorded call for C=C1C(C)C2C(Cc3ccccc3)NC(=O)C23C(OC(C)=O)C=CC(C)(O)C(=O)C(C)C/C=C/C3C1O (centres undefined) in this test.
Reply: inactive

Query: Field: outcome | Entry: Nc1nc(SCC#CCCl)c2[nH]cnc2n1
Reply: inactive

Query: So what was the verdict on O=C1c2ccc3c4c(ccc(c24)C(=O)N1CCCCO)C(=O)N(CCCCO)C3=O in this test?
Reply: inactive

====

Here, each record is paired with measured TGI data.
Tested on: OVCAR-8 ovarian
Assay: NCI tumour cell line growth inhibition, 48 h
The answer is to be given in µM; state only the numeric part.

# example entries with known answers
- Compound: "Cc1ccc2nc(CN(CCN(Cc3nc4ccc(C)cc4[nH]3)Cc3nc4ccc(C)cc4[nH]3)Cc3nc4ccc(C)cc4[nH]3)[nH]c2c1"
  TGI, µM: 3.22
- Compound: "COc1cc(/C=N/NC(=O)c2cnn3c2NC(c2ccccc2)C3)ccc1OCc1ccccc1 (centres undefined)"
  TGI, µM: 9.54
- Compound: "CCCCCCCCCC(=O)Oc1ccc(/C(=C(/C)c2ccccc2)c2ccc(OCCN3CCCC3)cc2)cc1"
  TGI, µM: 20.8

Turning to the following compound.
Query: Report TGI for COc1cc2c3c(c4ccc(O)cc4c2cc1OC)[C@@H](O)[C@@H]1CCCN1C3
Reply: 0.48

====

Tested on: SN12C renal
Test: NCI tumour cell line growth inhibition, 48 h
Metric Name: GI50

- Compound: "NS(=O)(=O)c1cccc(Nc2cc(-c3ccc(F)cc3)[nH]n2)c1"
  GI50: "> 20.7 µM"
- Compound: "CN1CCN(Cc2ccc(NC(=O)c3cncc(C#Cc4c(N)ncc5ccccc45)c3)cc2C(F)(F)F)CC1"
  GI50: "0.627 µM"
- Compound: "COc1ccc(/C=C\\c2cc(OC)c(OC)c(OC)c2)cc1NC(=O)/C=C/c1cc(OC)c(OC)c(OC)c1"
  GI50: "4.56 µM"

For the next question, use this compound.
Query: State recorded GI50 with SN12C renal, entry O=C(CC1(O)C(=O)Nc2ccc(Cl)cc21)c1ccc(C(=O)NCC2CCC3(CC2)OOC2(CCCCC2)OO3)cc1 (centres undefined) , no comment.
Reply: 3.45 µM

====

System: PC-3 prostate
Test: NCI tumour cell line growth inhibition, 48 h
Metric Name: TGI (µM)
Reply numerically in µM, unit not repeated.

Below, 2 compounds whose answers are already recorded.
- Smiles Representation: "N#Cc1cnn(C(=O)c2nn(-c3ccc(Cl)cc3)cc2O)c1N"
  Quantity Unit: "µM"
  TGI: 7.28
- Smiles Representation: "COc1cc2c3c(c4ccc(O)cc4c2cc1OC)[C@@H](O)[C@@H]1CCCN1C3"
  Quantity Unit: "µM"
  TGI: 0.175

Here is another compound to look at.
Query: Annotate the compound CCOC(=O)Nc1cc2c(c(N)n1)N=C(c1ccc(Cl)cc1Cl)CN2 with its measured TGI.
Reply: 14.9

====

Readings of TGI for the listed molecules
Tested on: DU-145 prostate
Assay: NCI tumour cell line growth inhibition, 48 h
Report the figure in µM without appending any unit label.

Record excerpt, results attached:
- Molecule: "O=C1c2ccc3c4c(ccc(c24)C(=O)N1CCCCO)C(=O)N(CCCCO)C3=O"
  TGI [µM]: 6.32
- Molecule: "Clc1ccc(Cc2nc3cc(Cl)c(Cl)cc3n2CC2CCCN3CCCCC23)cc1 (centres undefined)"
  TGI [µM]: 26.2
- Molecule: "COc1ccc(/C(=C(\\c2ccccc2)[N+](=O)[O-])c2ccc(OCCN3CCCC3)cc2)cc1"
  TGI [µM]: 21.5
- Molecule: "C=CC[PH+](c1ccccc1)c1ccccc1.C=CC[PH+](c1ccccc1)c1ccccc1.[Pt+2].[S-]c1nc2ccccc2[nH]1.[S-]c1nc2ccccc2[nH]1"
  TGI [µM]: 42.8

Now take the following molecule into account.
Query: Give TGI for COc1cc2c3c(c4cc(OC)c(OC)cc4c2cc1OC)CN1CCC[C@H]1C3
Reply: 0.187

====

System: 786-0 renal
Test: NCI tumour cell line growth inhibition, 48 h
Overview of recorded TGI for various molecules

Observe how each entry below is paired with its result.
- Molecule: "CC(=O)N(C(=O)CC(=O)N1N=C(C)C(N=Nc2cccc([N+](=O)[O-])c2)C1=O)c1ccc(Cl)cc1 (stereo not drawn)"
  TGI: "> 10 µM"
- Molecule: "N#C/C(=C/c1ccc([N+](=O)[O-])o1)c1ccccc1"
  TGI: "> 100 µM"
- Molecule: "Cc1cc2nc3c(N)nn(CCCN(C)C)c3nc2cc1C"
  TGI: "> 100 µM"

Query: Report TGI, nothing else, for this molecule: CC(C)C1OC(=O)C(Cc2ccccc2)N(C)C(=O)C(C(C)C)OC(=O)C(Cc2ccccc2)N(C)C(=O)C(C(C)C)OC(=O)C(Cc2ccccc2)N(C)C1=O (stereo not drawn)
Reply: 2.5 µM

Query: Output measured TGI for this item: O=C(O)c1ccccc1Sc1ccc(C=C2NC(=S)N(c3ccccc3)C2=O)s1
Reply: 35.8 µM

Query: Give TGI for CC1=C(\C=C/C(C)=C/C=C/C(C)=C/C=C/C=C(C)\C=C\C=C(C)/C=C/C2=C(C)CCCC2(C)C)C(C)(C)CCC1
Reply: > 100 µM

Query: Report TGI, nothing else, for this molecule: CCc1ccc([OH2+])c(C(=O)[O-])c1.CCc1ccc([OH2+])c(C(=O)[O-])c1.CCc1ccc([OH2+])c(C(=O)[O-])c1.CCc1ccc([OH2+])c(C(=O)[O-])c1.[Cu+2].[Cu+2]
Reply: > 100 µM

Query: Please give the documented TGI of NN=C1/C(=C\c2ccccc2)CCC/C1=C/c1ccccc1
Reply: > 100 µM

Query: Answer with the recorded TGI for the molecule listed here: CC[C@H](C)[C@H](NC(=O)CN(C)C)C(=O)N(C)[C@H](C[C@@H](OC(C)=O)c1nc(C(=O)NC23C4C5C2C2C3C4C52C(=O)OC)cs1)C(C)C (stereo partly drawn)
Reply: > 33.2 µM

Query: Provide measured TGI value, entry: COc1ccc2c(Cl)cc(NC(=S)Nc3ccccc3)nc2c1
Reply: 62.7 µM

Query: Give the reported value of TGI for this record: CSC(SC)=C(C#N)C(=O)Nc1ccc(Cl)cc1
Reply: > 100 µM

Query: Supply TGI value. Item: COC(=O)C(=O)C(C(=O)C(=O)Nc1cc(C)ccc1C)c1nc2ccccc2[nH]c1=O (stereo not drawn)
Reply: > 100 µM

Query: Fill in TGI for record N#Cc1c(N)oc2cc3c(C#N)c(N)oc3cc12
Reply: > 100 µM

Query: Return TGI for the following molecule: CCCC(O)c1ccc2[nH]c3c(C)cc([N+](=O)[O-])c(C)c3c2c1 (stereo not drawn)
Reply: > 100 µM

Query: Please supply the value of reported TGI for the item O=C1OCOC2(CCCC2)C1c1ccccc1 (stereo not drawn)
Reply: > 100 µM

Query: Look up TGI of CCN(CC)c1ccc(N=Nc2ccc(-c3nc4cccnc4s3)cc2)cc1 and report it.
Reply: > 100 µM

Query: Note TGI for the molecule shown: O=C1OCc2nc3c(c(-c4ccccc4C(F)(F)F)c21)C(=O)OC3
Reply: > 100 µM

Query: Give the value of TGI reported for the following: O=C(C=P(c1ccccc1)(c1ccccc1)c1ccccc1)c1ccccc1-c1ccccc1C(=O)C=P(c1ccccc1)(c1ccccc1)c1ccccc1
Reply: 1.25 µM
